# assay target: Yer184c (UniProt P39961)
# Sequence: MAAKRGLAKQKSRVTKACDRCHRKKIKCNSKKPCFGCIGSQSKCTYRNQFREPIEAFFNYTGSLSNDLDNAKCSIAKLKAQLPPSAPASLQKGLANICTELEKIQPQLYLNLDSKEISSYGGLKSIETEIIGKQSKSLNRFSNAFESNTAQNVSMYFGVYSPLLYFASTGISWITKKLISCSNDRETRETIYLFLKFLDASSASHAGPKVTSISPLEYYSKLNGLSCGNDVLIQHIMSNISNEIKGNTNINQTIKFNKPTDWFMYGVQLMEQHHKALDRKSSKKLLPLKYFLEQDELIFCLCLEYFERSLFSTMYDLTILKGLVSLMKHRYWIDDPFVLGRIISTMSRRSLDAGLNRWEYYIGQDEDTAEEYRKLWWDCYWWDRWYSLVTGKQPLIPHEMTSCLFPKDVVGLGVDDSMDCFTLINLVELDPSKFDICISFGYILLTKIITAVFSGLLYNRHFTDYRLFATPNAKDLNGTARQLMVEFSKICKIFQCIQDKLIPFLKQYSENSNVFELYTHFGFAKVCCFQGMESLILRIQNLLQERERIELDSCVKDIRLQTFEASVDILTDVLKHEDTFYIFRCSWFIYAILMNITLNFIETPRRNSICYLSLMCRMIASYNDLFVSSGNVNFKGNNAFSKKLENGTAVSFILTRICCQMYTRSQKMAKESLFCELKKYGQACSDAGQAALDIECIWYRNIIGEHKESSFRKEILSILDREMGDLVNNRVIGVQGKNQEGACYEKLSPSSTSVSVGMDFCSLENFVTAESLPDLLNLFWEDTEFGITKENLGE
# assay: PBM E-score (8-mer binding enrichment) (E-score (-0.5 to 0.5)); higher = stronger / more preferred TF binding
# experimental context: protein concentration: 100 nM; construct: GST-full length
The full ranking holds about 33,000 sequences; the median of “E-score (-0.5 to 0.5)” is about -0.016, and the highest 2% start at about 0.3. Many of the other results were omitted from the sample, so the highest values are more common in it than they were.
metric: PBM E-score
Number, no unit, nothing else.

• ATCCGGTG = 0.353
• CCGAATCA = 0.233
• TTTATAAA = 0.348

Qu. Entry `CTCTCGTA` has what PBM E-score?
Ans. -0.204

Qu. Entry `CTGGTGTA` has what PBM E-score?
Ans. -0.234

Qu. Entry `ACATGCTG` has what PBM E-score?
Ans. -0.257

###

# assay target: Yer184c (UniProt P39961)
# Sequence: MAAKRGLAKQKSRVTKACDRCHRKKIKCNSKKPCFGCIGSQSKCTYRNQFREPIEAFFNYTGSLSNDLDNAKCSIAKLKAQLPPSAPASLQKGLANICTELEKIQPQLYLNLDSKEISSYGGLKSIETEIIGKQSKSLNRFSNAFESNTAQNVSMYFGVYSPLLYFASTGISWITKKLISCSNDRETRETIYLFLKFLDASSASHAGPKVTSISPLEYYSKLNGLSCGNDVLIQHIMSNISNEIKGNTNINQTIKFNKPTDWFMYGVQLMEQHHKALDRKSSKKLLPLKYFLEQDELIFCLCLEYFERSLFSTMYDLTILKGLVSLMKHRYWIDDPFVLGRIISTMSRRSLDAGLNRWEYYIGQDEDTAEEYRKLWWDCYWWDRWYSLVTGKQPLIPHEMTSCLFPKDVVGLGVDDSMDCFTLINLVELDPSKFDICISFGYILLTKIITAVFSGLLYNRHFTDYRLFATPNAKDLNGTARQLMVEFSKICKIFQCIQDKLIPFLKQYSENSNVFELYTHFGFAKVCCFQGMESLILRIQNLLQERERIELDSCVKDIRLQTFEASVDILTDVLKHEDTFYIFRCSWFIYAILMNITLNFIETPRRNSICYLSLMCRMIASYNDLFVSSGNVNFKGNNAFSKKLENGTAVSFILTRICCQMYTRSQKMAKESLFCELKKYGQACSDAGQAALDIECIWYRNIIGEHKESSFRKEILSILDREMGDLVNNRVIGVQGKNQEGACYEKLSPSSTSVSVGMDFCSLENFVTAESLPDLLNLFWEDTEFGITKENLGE
# assay: PBM E-score (8-mer binding enrichment) (E-score (-0.5 to 0.5)); higher = stronger / more preferred TF binding
# experimental context: protein concentration: 100 nM; construct: GST-full length
In all, about 33,000 sequences were measured (“E-score (-0.5 to 0.5)”: median about -0.016, highest 2% from about 0.3 on). The list comes from a sample in which the highest values are over-represented; it also holds close analogues and randomly drawn sequences.
metric: PBM E-score

Qu. Entry `GAAGTAGC` has what PBM E-score?
Ans. -0.00548

Qu. Entry `AGGCTCAG` has what PBM E-score?
Ans. -0.163

Qu. Entry `ATCGCCGC` has what PBM E-score?
Ans. 0.206

Qu. Entry `AGGATAGA` has what PBM E-score?
Ans. 0.0167

Qu. Entry `ACGTGCCG` has what PBM E-score?
Ans. 0.233

Qu. Entry `CCGGCTCA` has what PBM E-score?
Ans. 0.362

Qu. Entry `CTTCCGTC` has what PBM E-score?
Ans. 0.209

Qu. Entry `AAAATTAC` has what PBM E-score?
Ans. 0.127

Qu. Entry `AGGCATGG` has what PBM E-score?
Ans. -0.0826

Qu. Entry `ATGAAACA` has what PBM E-score?
Ans. 0.02

Qu. Entry `ACCGCCGG` has what PBM E-score?
Ans. 0.291

Qu. Entry `CGATCCGC` has what PBM E-score?
Ans. 0.113

Qu. Entry `ACGGCTAA` has what PBM E-score?
Ans. 0.233

Qu. Entry `GGGCCTTA` has what PBM E-score?
Ans. -0.209
